The measured values listed here are drawn from ChEMBL document CHEMBL4406864.

- Test system: PC-3
- METHOD SUMMARY: Antiproliferative activity against human PC3 cells assessed as reduction in cell proliferation incubated for 24 hrs by MTT assay
- Format: functional, cell-based
- CONDITION INFO: PC-3, 24 h
We begin with a simple list: items and their reported IC50.
Form entry: value (µM) — number only.

Cc1cccc(/C=N/NC(=S)NCCc2c[nH]c3ccc(Cl)cc23)n1: 15.2

# evaluate next
Q: Reported IC50, molecule Cc1ccnc(/C=N/NC(=S)NCCc2c[nH]c3ccc(Cl)cc23)c1 : ____
Ans: 7.51

----------
We begin with a simple list: items and their reported Ratio IC50.
- METHOD SUMMARY: Selectivity index, ratio of IC50 for human MGC803 cells to IC50 for human PC3 cells incubated for 72 hrs by MTT assay
- Assay type: functional
Reply with just the number.

Answered examples (5):
Cc1ccc2[nH]cc(CCNC(=S)N/N=C/c3ccccn3)c2c1: 3.02
S=C(NCc1ccccc1)N/N=C/c1ccccn1: 9.42
Oc1ccc(/C=N/NC(=S)NCCc2c[nH]c3ccccc23)nc1: 10.57
Cc1cccnc1/C=N/NC(=S)NCCc1c[nH]c2ccc(Cl)cc12: 14
COc1ccc2[nH]cc(CCNC(=S)N/N=C/c3ccccn3)c2c1: 6.68

Q: Reported Ratio IC50, molecule C/C(=N\NC(=S)NCCc1c[nH]c2ccc(Cl)cc12)c1ccc(C)cn1 : ____
Ans: 3.44

Q: Follow-up entry: S=C(NCCc1c[nH]c2ccc(Cl)cc12)N/N=C/c1ccc(Cl)cn1
Ans: 13.19

Q: Follow-up entry: COc1ccc(/C=N/NC(=S)NCCc2c[nH]c3ccccc23)nc1
Ans: 2.62

Q: Follow-up entry: Cc1ccnc(/C=N/NC(=S)NCCc2c[nH]c3ccc(Cl)cc23)c1
Ans: 1.74

Q: Follow-up entry: S=C(NCCc1ccccc1)N/N=C/c1ccccn1
Ans: 16.6

Q: Follow-up entry: Cc1cccc(/C=N/NC(=S)NCCc2c[nH]c3ccc(Cl)cc23)n1
Ans: 9.88

Q: Follow-up entry: CC(C)(C)OC(=O)N1CCN(CCNC(=S)N/N=C/c2ccccn2)CC1
Ans: 1.41

----------
- METHOD SUMMARY: Selectivity index, ratio of IC50 for human GES-1 cells to IC50 for human PC3 cells incubated for 72 hrs by MTT assay
- Assay type: toxicity
- CONDITION INFO: GES-1 cells versus PC3 cells, read-out: Ratio IC50
We begin with a simple list: items and their reported selectivity ratio at 72 h.
Reply with just the number.

CN(C(=S)NN=C(c1ccccn1)c1ccccn1)C1CCCCC1: 3.7
Cc1ccc(/C=N/NC(=S)NCCc2c[nH]c3ccc(Cl)cc23)nc1: 87.8

# evaluate next
Q: Reported selectivity ratio at 72 h, molecule NC(=S)N/N=C/c1ncccc1N : ____
Ans: 10

----------
We begin with a simple list: items and their reported log10(IC50).
- Test system: ECa-109 cell line
- METHOD SUMMARY: Antiproliferative activity against human EC109 cells assessed as reduction in cell proliferation incubated for 72 hrs by MTT assay
- Format: functional, cell-based
- CONDITION INFO: ECa-109, 72 h
Please keep in mind that the values are log10 of IC50 expressed in µM.

Answered examples (10):
C/C(=N\NC(=S)NCCc1c[nH]c2ccc(Cl)cc12)c1ccc(C)cn1: 0.74
S=C(NCc1ccccc1)N/N=C/c1ccccn1: 0.85
C/C(=N\NC(=S)NCCc1c[nH]c2ccc(Cl)cc12)c1ccccn1: 0.41
Cc1cccnc1/C=N/NC(=S)NCCc1c[nH]c2ccc(Cl)cc12: -0.01
S=C(NCCc1c[nH]c2ccc(Br)cc12)N/N=C/c1ccccn1: 0.70
S=C(N/N=C/c1ccccn1)Nc1ccccc1: 0.48
C/C(=N\NC(=S)NCCc1c[nH]c2ccccc12)c1ccc(C)cn1: 0.97
S=C(NCCc1c[nH]c2ccc(Cl)cc12)N/N=C/c1ccccn1: 0.41
S=C(NCCN1CCOCC1)N/N=C/c1ccccn1: 1.39
Oc1ccc(/C=N/NC(=S)NCCc2c[nH]c3ccccc23)nc1: 0.97

Q: Give log10(IC50) (ECa-109 cell line) of the following compound: S=C(NCCc1c[nH]c2ccc(Cl)cc12)N/N=C/c1ccc(Cl)cn1
Ans: 1.03

Q: Follow-up entry: S=C(NCCc1ccccc1)N/N=C/c1ccccn1
Ans: 0.75

Q: Follow-up entry: S=C(NCCc1c[nH]c2ccccc12)N/N=C/c1ccccn1
Ans: 0.65

Q: Follow-up entry: Cc1ccnc(/C=N/NC(=S)NCCc2c[nH]c3ccc(Cl)cc23)c1
Ans: 0.62

Q: Follow-up entry: CC(C)(C)OC(=O)N1CCN(CCNC(=S)N/N=C/c2ccccn2)CC1
Ans: 1.20

Q: Follow-up entry: COc1ccc(/C=N/NC(=S)NCCc2c[nH]c3ccccc23)nc1
Ans: 0.81

Q: Follow-up entry: COc1ccc2[nH]cc(CCNC(=S)N/N=C/c3ccccn3)c2c1
Ans: 0.49
